Reported values of Ki for individual entries
- Target system: UniProtKB P33533
- Assay protocol: Binding assay of opioid δ receptor ([3H]-DADLE, rat cerebrum membrane)
Give a bare numeral; the unit nM is implied.

CCCCNC(=O)C1=C(O)[C@@H]2Oc3c(O)ccc4c3[C@@]23CCN(CC2CC2)[C@H](C4)[C@]3(O)C1 [Compound I-3] :: 8.76
COc1cc(NC(=O)C2=C(O)[C@@H]3Oc4c(O)ccc5c4[C@@]34CCN(CC3CC3)[C@H](C5)[C@]4(O)C2)ncn1 [Compound I-243] :: 5.2

Here's the next entry for you.
Q. Report Ki for COCC1(NC(=O)C2=C(O)[C@@H]3Oc4c(O)ccc5c4[C@@]34CCN(CC3CC3)[C@H](C5)[C@]4(O)C2)CC1 [Compound I-283] tested on UniProtKB P33533.
A. 3.73
